- System: HUVEC
- protocol-details: Inhibition of HMGB1-induced hyperpermeability of Evans blue-bound albumin in human HUVEC at 10 uM after 6 hrs by spectrophotometric analysis relative to control
- Assay type: functional
quantity: inhibition at 10 µM (%)
Report as a plain number; the unit % is understood.

INSERT INTO results (smi, quantity, endpoint_unit, numeric_readout) VALUES
  ('COc1cc(/C=C/C(=O)Oc2ccc3[nH]c4ccccc4c3c2)cc(OC)c1OC', 'inhibition at 10 µM', '%', 70.2);

Readout inhibition at 10 µM for COc1ccc(/C=C/C(=O)Nc2ccc3[nH]c4ccccc4c3c2)cc1OC , test system HUVEC, was 42.9

Readout inhibition at 10 µM for COc1cc(/C=C/C(=O)Nc2ccc3[nH]c4ccccc4c3c2)cc(OC)c1OC , test system HUVEC, was 68.4

Readout inhibition at 10 µM for COc1ccc(/C=C/C(=O)Nc2ccc3[nH]c4ccccc4c3c2)cc1 , test system HUVEC, was 3.6
